System: DMS-273
assay-name: NCI tumour cell line growth inhibition, 48 h
The source made the active and inactive calls. Rule as the data show it: active = GI50 up to about 1.1 µM and inactive = higher.
Labels: TRUE for active, FALSE for inactive

{"molecule": "COc1ccc(C2S/C(=C\\c3ccc([N+](=O)[O-])cc3)C(=O)N2NC(=O)Cc2ccccc2)cc1 (stereo not given)", "category-label": "FALSE"}
{"molecule": "O=C1c2ccccc2C(=O)N1C/C=N/NS(=O)(=O)c1cccc([N+](=O)[O-])c1", "category-label": "FALSE"}
{"molecule": "CCC/C(=N\\NC(=S)N1CCN(c2ccccn2)CC1)c1ccccn1", "category-label": "TRUE"}
{"molecule": "C1OC1CO[C@@H]1CO[C@H]2[C@@H]1OC[C@H]2OCC1CO1 (stereo not given in full)", "category-label": "FALSE"}
{"molecule": "NC(=O)N1N=C2c3ccccc3OC[C@H]2[C@@H]1c1ccccc1", "category-label": "FALSE"}
{"molecule": "CCOc1ccc(N2C(=O)/C(=C/c3ccc(N(CCC#N)CCC#N)cc3)N=C2c2cc([N+](=O)[O-])ccc2Cl)cc1", "category-label": "FALSE"}
{"molecule": "COC(=O)C(CBr)CBr", "category-label": "FALSE"}
{"molecule": "COc1cc([C@H]2Oc3cc(O)c4c(=O)cc(-c5ccc(O)cc5)oc4c3O[C@@H]2CO)ccc1O", "category-label": "FALSE"}
{"molecule": "CN(C=O)/C=C/c1cc(O)ccc1O", "category-label": "FALSE"}
{"molecule": "COC1(C)CNCC(C)(C)NC(=O)C(C)(OC)CNCC(C)(C)NC1=O (stereo not given)", "category-label": "FALSE"}

Where do these numbers come from? They come from ChEMBL document CHEMBL1201862.
